Provide the reported kon of each item.
# target of assay: purified extracellular domain of PSMA (prostate-specific membrane antigen), residues 44–750 (human, UniProt Q04609)
# Sequence (Q04609 44-750): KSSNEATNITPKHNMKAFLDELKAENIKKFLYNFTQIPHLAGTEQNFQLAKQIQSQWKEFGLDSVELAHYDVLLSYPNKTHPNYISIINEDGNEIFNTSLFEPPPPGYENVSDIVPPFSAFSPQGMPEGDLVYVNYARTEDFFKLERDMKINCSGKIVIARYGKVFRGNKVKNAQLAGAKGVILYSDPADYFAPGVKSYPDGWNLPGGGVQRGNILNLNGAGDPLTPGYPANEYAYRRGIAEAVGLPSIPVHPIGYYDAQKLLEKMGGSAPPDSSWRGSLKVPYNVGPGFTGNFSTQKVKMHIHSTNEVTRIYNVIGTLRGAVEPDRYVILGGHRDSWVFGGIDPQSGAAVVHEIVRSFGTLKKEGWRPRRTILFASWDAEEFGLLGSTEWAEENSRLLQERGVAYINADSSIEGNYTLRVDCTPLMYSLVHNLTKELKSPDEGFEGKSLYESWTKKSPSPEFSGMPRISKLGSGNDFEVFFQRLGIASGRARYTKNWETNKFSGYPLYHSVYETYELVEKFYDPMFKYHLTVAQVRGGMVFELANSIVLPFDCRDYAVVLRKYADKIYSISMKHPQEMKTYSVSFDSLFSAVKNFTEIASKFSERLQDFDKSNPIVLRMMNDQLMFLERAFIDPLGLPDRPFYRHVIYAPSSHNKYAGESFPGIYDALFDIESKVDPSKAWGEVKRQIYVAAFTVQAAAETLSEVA
# protocol details: SPR; ProteOn XPR36 chip; each NB (0.2 μg) immobilised by amine coupling (sulfo-NHS/EDC, 10 mM sodium acetate pH 5.0); soluble PSMA flowed at 25 μL/min (25-3200 pM for NB7; 2.94-47.00 nM for NB8, NB13, NB37); dissociation in PBST (0.005% Tween); BSA surface subtracted; Langmuir 1:1 kinetic model; 25 °C
# stated conditions: both partners purified
Numbers only, in M⁻¹ s⁻¹.

Each binder below has a recorded value; state its kon.
1. NB8 (VHH) VHH: QVQLQESGGGSVQAGGSLRLSCARSGWPYSTYSMNWFRQAPGKEREAVAGISSTMSGIIFAESKAGQFTISQDNAKNTVYLQMNNLKPEDTAIYYCAARRDYSLSSSSDDFDYWGQGTQVTVSS
2. NB13 (VHH) VHH: QVQLQESGGGSVQTGGSLRLSCAASGYTASFSWIGYFRQAPGKEREGVAVINVGVGSTYYADSVKGRFTISRDNTENTISLEMNSLKPEDTGLYYCAGSLRWSRPPNPISEDAYNYWGQGTQVTVSS
3. NB37 (VHH) VHH: QVQLQESGGGSVEAGGSLRLSCARSGWPYSTYSMNWFRQAPGKEREAVAGISSTMSGIIFAESKAGQFTISQDNAKNTVYLQMNNLKPEDTAIYYCAARRDYSLSSSSDDFDYWGQGTQVTVSS
4. NB7 (VHH) VHH: QVQLQESGGGSVQAGGSLRLSCTAPGYTDSNYYMSWFRQAPGKEREWVAGVNTGRGSTSYADSVKGRFTISQDNAKNTMFLQMNSLKPEDTAIYYCAVAACHFCDSLPKTQDEYILWGQGTQVTVSS

1. 20000
2. 36000
3. 22000
4. 710000

Where do these numbers come from? They come from paper PMC7383930.
